Provide the reported IC50 of each item.
experiment: Displacement of [3H]nitrendipine binding to L-type calcium channel of Guinea pig cerebral cortex membranes; assay type: tissue-based, Cavia porcellus
Give the value, in units of nM, as a plain number.

Fill blank: measured IC50 of the molecule `COc1ccc([C@@H]2Sc3ccccc3N(CCN(C)C)C(=O)[C@@H]2OC(C)=O)cc1` is ____.
59

Fill blank: measured IC50 of the molecule `CCCCN(CCCC)CCCOc1ccc(S(=O)(=O)c2c(CCC)cn3ccccc23)cc1` is ____.
14

Fill blank: measured IC50 of the molecule `COC(=O)C1=C(C)NC(C)=C(C(=O)OC)C1c1ccccc1[N+](=O)[O-]` is ____.
2.5

Fill blank: measured IC50 of the molecule `COc1cc(CCN(C)CCCOc2ccc(S(=O)(=O)c3c(C(C)C)cn4ccccc34)cc2)cc(OC)c1OC` is ____.
0.6

Fill blank: measured IC50 of the molecule `CC(C)c1cn2ccccc2c1S(=O)(=O)c1ccc(OCCCNCc2ccccc2)cc1` is ____.
4.5

Fill blank: measured IC50 of the molecule `CCCCc1cn2ccccc2c1S(=O)(=O)c1ccc(OCCCN(CCCC)CCCC)cc1` is ____.
22

Fill blank: measured IC50 of the molecule `CCCCN(CCCC)CCCCOc1ccc(S(=O)(=O)c2c(C(C)C)cn3ccccc23)cc1` is ____.
1.3

Fill blank: measured IC50 of the molecule `CC(C)c1cn2ccccc2c1S(=O)(=O)c1ccc(OCCCN2CCN(c3ccccc3)CC2)cc1` is ____.
14

Fill blank: measured IC50 of the molecule `CCc1cn2ccccc2c1S(=O)(=O)c1ccc(OCCCN2CCCCC2)cc1` is ____.
274

Fill blank: measured IC50 of the molecule `CCCCCN(CCCCC)CCCOc1ccc(S(=O)(=O)c2c(CC)cn3ccccc23)cc1` is ____.
6.3

Fill blank: measured IC50 of the molecule `CCCCCN(CCCCC)CCCOc1ccc(S(=O)(=O)c2c(C(C)C)cn3ccccc23)cc1` is ____.
0.89

Fill blank: measured IC50 of the molecule `COc1ccc(CN(C)CCCOc2ccc(S(=O)(=O)c3c(C4CC4)cn4ccccc34)cc2)cc1OC` is ____.
1.9

Fill blank: measured IC50 of the molecule `CCCN(CCC)CCCOc1ccc(S(=O)(=O)c2c(CC)cn3ccccc23)cc1` is ____.
181

Fill blank: measured IC50 of the molecule `CCCCN(CCCC)CCCOc1ccc(S(=O)(=O)c2c(C3CCCCC3)cn3ccccc23)cc1` is ____.
113

Fill blank: measured IC50 of the molecule `CCCCN(CCCC)CCCOc1ccc(S(=O)(=O)c2c(C3CC3)cn3ccccc23)cc1` is ____.
2.5
